protocol: Acute intravenous toxicity (LD50)
Type: in vivo
testSettings: mouse, in vivo; mice, one intravenous dose, observed for 14 days
valueType: LD50 at 336 h

>  <molecule>
O=C(O)c1c([N+](=O)[O-])c(Br)cc(Br)c1[N+](=O)[O-] [Example 1, 3,5-dibromo-2,6-dinitrobenzoic acid]

>  <result>
~240 mg/kg

$$$$

All figures here come from patent US6124352A.
